// reported melting point for each item listed
metric.name: melting point (°C)

compound	unit.text	result.number
CSc1ccccc1N1CCN(CCC2CCN(CC(C)=O)CC2)CC1.Cl.Cl	°C	280
CCOCC(=O)N1CCC(CCN2CCN(c3cccc4c3CCC4)CC2)CC1.Cl	°C	270
CCOCC(=O)N[C@H]1CC[C@H](CCN2CCN(c3cc(C(F)(F)F)cc(C(F)(F)F)c3)CC2)CC1 [Example 108]	°C	135

---

// reported melting point for each item listed

chemical.smiles	melting point [°C]
COCCCC(=O)N[C@H]1CC[C@H](CCN2CCN(c3cc(C)cc(Cl)c3)CC2)CC1	167
CC(=O)CN1CCC(CCN2CCN(c3ccc4c(c3)CCCC4)CC2)CC1	75
CCCc1cccc(N2CCN(CC[C@H]3CC[C@H](NC(=O)CCCC#N)CC3)CC2)c1	142
COc1ccc(C(F)(F)F)cc1N1CCN(CCC2CCN(CC(C)=O)CC2)CC1.Cl.Cl	260

---

molecule	unit.text	melting point
CC(=O)CN1CCC(CCN2CCN(c3cccc(F)c3)CC2)CC1.Cl.Cl	°C	268
CCOC(=O)Nc1cccc(N2CCN(CCC3CCN(CC(C)=O)CC3)CC2)c1 [Example 777]	°C	118
CC(=O)CN1CCC(CCN2CCN(c3ccccc3C(F)(F)F)CC2)CC1.Cl.Cl	°C	290
COCc1cccc(N2CCN(CCC3CCN(CC(C)=O)CC3)CC2)c1.Cl.Cl	°C	255
CC(=O)CN1CCC(CCN2CCN(c3ccc(F)cc3F)CC2)CC1.Cl.Cl	°C	260
CC(=O)CN1CCC(CCN2CCN(c3cccc(F)c3F)CC2)CC1.Cl.Cl	°C	270
CS(=O)(=O)CC(=O)N[C@H]1CC[C@H](CCN2CCN(c3ccc(Cl)cc3)CC2)CC1 [Example 427]	°C	214
CC(=O)CN1CCC(CCN2CCN(c3cc(F)c(F)c(F)c3F)CC2)CC1.Cl.Cl	°C	235
COCC(=O)NC1CCC(CCN2CCC(c3cccc(C(F)(F)F)c3)CC2)CC1 (mixture of isomers) [Example 61]	°C	82

---

// reported melting point for each item listed

chemical.smiles	melting point / °C
CC(=O)CN1CCC(CCN2CCN(c3cccc(-c4ccccc4)c3)CC2)CC1.Cl.Cl	235
CC(C)(C)OC(=O)N1CCC(CCN2CCN(c3cccc(C(F)(F)F)c3)CC2)CC1.Cl	188
CC(=O)c1cccc(N2CCN(CC[C@H]3CC[C@H](NC(=O)CCCC#N)CC3)CC2)c1	181
O=C(CC(F)(F)F)N[C@H]1CC[C@H](CCN2CCN(c3ccc(Cl)cc3)CC2)CC1	234
CC(C)(C)c1cc(N2CCN(CC[C@H]3CC[C@H](NC(=O)CC#N)CC3)CC2)nc(C(C)(C)C)n1	145
CS(=O)(=O)Nc1cccc(N2CCN(CC[C@H]3CC[C@H](NC(=O)CC#N)CC3)CC2)c1	194
N#CCC(=O)N[C@H]1CC[C@H](CCN2CCN(c3cccc(F)c3F)CC2)CC1	190

---

I'd appreciate it if you marked entries yes (1) when melting point is lower than 200 °C and no (0) when it is not.

chemical.smiles	class
Cc1ccc(F)c(N2CCN(CC[C@H]3CC[C@H](NC(=O)CC#N)CC3)CC2)c1	yes (1)
N#CCC(=O)N[C@H]1CC[C@H](CCN2CCN(c3cccc(CO)c3)CC2)CC1	yes (1)
Cc1ccc(N2CCN(CC[C@H]3CC[C@H](NC(=O)CC#N)CC3)CC2)cc1	no (0)
CC(=O)CN1CCC(CCN2CCN(c3ccc(C)c(C)c3)CC2)CC1.Cl.Cl	no (0)
CC(=O)CN1CCC(CCN2CCN(c3cc(C#N)cc(C(F)(F)F)c3)CC2)CC1.Cl.Cl	no (0)
O=C(N[C@H]1CC[C@H](CCN2CCN(c3cccc(F)c3)CC2)CC1)C1CC=CC1	no (0)
N#CCC(=O)N[C@H]1CC[C@H](CCN2CCN(c3ccccc3C#N)CC2)CC1	yes (1)

# credit: patent US8802678B2
